B1: scFv; the commonest letter at each place (parent)
chain 1: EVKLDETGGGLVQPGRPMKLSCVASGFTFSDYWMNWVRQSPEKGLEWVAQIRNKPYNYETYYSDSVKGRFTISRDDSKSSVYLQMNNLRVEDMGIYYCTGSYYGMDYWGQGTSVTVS
chain 2: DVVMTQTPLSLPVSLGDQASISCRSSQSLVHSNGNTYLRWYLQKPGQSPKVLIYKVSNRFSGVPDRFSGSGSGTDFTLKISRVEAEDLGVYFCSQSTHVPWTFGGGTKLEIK

# Variants of: B1
# assay notes: Kd (Tite-Seq)
# assay context: with fluorescein; format: scFv 4-4-20, heavy + light
value type: Kd

Record chain 1 M105T Y107R , field Kd: ≥ 10000 nM

Record chain 1 D106W G109V , field Kd: ≥ 10000 nM

Record chain 1 S30H W36F , field Kd: 4 nM

Record chain 1 Y103M W108A , field Kd: 7.46 nM

Record chain 1 T28M M34C , field Kd: 35.3 nM

Record chain 1 T28I D31F , field Kd: 1.66 nM

Record chain 1 Y103E D106P , field Kd: ≥ 10000 nM

Record chain 1 F29L W33D W36S , field Kd: ≥ 10000 nM

Record chain 1 M34C , field Kd: 3.26 nM

Record chain 1 Y102V M105H G109V , field Kd: ≥ 10000 nM

Record chain 1 S101E Y102Q W108C , field Kd: ≥ 10000 nM

Record chain 1 G104N Y107K , field Kd: ≥ 10000 nM

Record chain 1 W36S , field Kd: ≥ 10000 nM

Record chain 1 N35I W36L , field Kd: ≥ 10000 nM

Record chain 1 T28W F29P S30F , field Kd: ≥ 10000 nM

Record chain 1 Y103P , field Kd: ≥ 10000 nM

Record chain 1 Y32F V37I , field Kd: 12.5 nM

Record chain 1 Y102M D106T , field Kd: ≥ 10000 nM

Record chain 1 S30D D31G W33A , field Kd: ≥ 10000 nM

Record chain 1 W36F V37N , field Kd: 7.46 nM

Record chain 1 Y102K Y107I , field Kd: 30.2 nM

Record chain 1 F29Y V37I , field Kd: 1.94 nM

Record chain 1 Y102E G109K , field Kd: ≥ 10000 nM

Record chain 1 T28D D31L , field Kd: 0.804 nM

Record chain 1 Y102V M105Q , field Kd: 1630 nM

Record chain 1 G104A D106Q , field Kd: ≥ 10000 nM

Record chain 1 T28N Y32G , field Kd: 345 nM

Record chain 1 M105Q W108E , field Kd: ≥ 10000 nM

Record chain 1 S30R M34S , field Kd: 110 nM

Record chain 1 D31H W33P , field Kd: ≥ 10000 nM

Record chain 1 Y32P N35K , field Kd: 195 nM

Record chain 1 G104D G109L , field Kd: ≥ 10000 nM

Record chain 1 M34R , field Kd: 9500 nM

Record chain 1 Y107A W108A , field Kd: ≥ 10000 nM

Record chain 1 F29P W36A , field Kd: ≥ 10000 nM

Record chain 1 G100Y Y102T , field Kd: ≥ 10000 nM

Record chain 1 N35V W36M , field Kd: ≥ 10000 nM

Record chain 1 G100D D106G G109S , field Kd: ≥ 10000 nM

Record chain 1 D31Y W36S , field Kd: ≥ 10000 nM

Record chain 1 W33A W36H , field Kd: ≥ 10000 nM

Record chain 1 T28A D31W , field Kd: 6.38 nM

Record chain 1 M105L , field Kd: 5.19 nM

Record chain 1 Y32T M34E , field Kd: ≥ 10000 nM

Record chain 1 N35V , field Kd: ≥ 10000 nM

Record chain 1 Y102H Y107F G109K , field Kd: ≥ 10000 nM

Record chain 1 F29T D31N , field Kd: 18.9 nM
